system: ECHORC (Watergrass (Calif.)); assay: Preemergence weed control under flooded paddy conditions; type: in vivo, Echinochloa oryzoides; settings: 0.2500 kg/ha, rated 3-4 weeks after treatment
I would appreciate it if you labelled entries label 1 when Herbicidal rating ECHORC is 5 or higher, otherwise label 0.

Record `COC(=O)CCN1C(=O)CSC1=Nc1cc(-n2c(=O)cc(C(F)(F)F)n(C)c2=O)c(F)cc1Cl` ; criterion: Herbicidal rating ECHORC no lower than 5. Met? label 1

---

tested on: TRZAWR (Wheat, Winter, cv Riband); test: Preemergence herbicidal evaluation; type: in vivo, Triticum aestivum; conditions: rate 0.2500 kg/ha; rated 4-5 weeks after treatment
Preemergence herbicidal rating TRZAWR by entry:

The cases that follow already have their Preemergence herbicidal rating TRZAWR on record.
compound: CCOC(=O)CN1C(=O)C(Cc2ccccc2OC(C)C(=O)OC)SC1=Nc1cc(-n2c(=O)cc(C(F)(F)F)n(C)c2=O)c(F)cc1Cl (stereo not drawn)
Preemergence herbicidal rating TRZAWR: 0.0
--
compound: Cn1c(C(F)(F)F)cc(=O)n(-c2cc(N=C3SCC(=O)N3Cc3ccco3)c(Cl)cc2F)c1=O
Preemergence herbicidal rating TRZAWR: 0.0

Now for the compound whose Preemergence herbicidal rating TRZAWR we want.
Per the records, this compound ( `CCOP(=O)(CN1C(=O)CSC1=Nc1cc(-n2c(=O)cc(C(F)(F)F)n(C)c2=O)c(F)cc1Cl)OCC` ) has Preemergence herbicidal rating TRZAWR equal to 3.0

---

Herbicidal rating CYPSE by entry:
system: CYPSE (Flatsedge); experiment: Postemergence weed control under flooded paddy conditions; type: in vivo, Cyperus serotinus; conditions: Rate 0.0313 kg/ha, postemergence weeds, rated 3 to 4 weeks after treatment

molecule: CCOC(=O)CN1C(=O)C(CC(=O)OCCF)SC1=Nc1cc(-n2c(=O)cc(C(F)(F)F)n(C)c2=O)c(F)cc1Cl (stereo not shown) [Compound 82]
Herbicidal rating CYPSE: 0.0
--
molecule: CCS(=O)(=O)NC(=O)CC1SC(=Nc2cc(-n3c(=O)cc(C(F)(F)F)n(C)c3=O)c(F)cc2Cl)N(C)C1=O (stereo not shown) [Compound 105]
Herbicidal rating CYPSE: 2.0
--
molecule: CCOC(=O)CN1C(=O)C(CC(=O)OC(C)C)SC1=Nc1cc(-n2c(=O)cc(C(F)(F)F)n(C)c2=O)c(F)cc1Cl (stereo not shown) [Compound 60]
Herbicidal rating CYPSE: 2.0

Per the records, this molecule ( C=CCN1C(=O)C(CC(=O)O)SC1=Nc1cc(-n2c(=O)cc(C(F)(F)F)n(C)c2=O)c(F)cc1Cl (stereo not shown) [Compound 62] ) has Herbicidal rating CYPSE equal to 0.0

Per the records, this molecule ( CCOC(=O)C(c1ccc(Cl)cc1)N1C(=O)CSC1=Nc1cc(-n2c(=O)cc(C(F)(F)F)n(C)c2=O)c(F)cc1Cl (racemic) [Compound 79] ) has Herbicidal rating CYPSE equal to 0.0

Per the records, this molecule ( Cn1c(C(F)(F)F)cc(=O)n(-c2cc(N=C3SCC(=O)N3CC(=O)OCC#N)c(Cl)cc2F)c1=O [Compound 109] ) has Herbicidal rating CYPSE equal to 0.0

Per the records, this molecule ( COC(=O)[C@H](Cc1ccc([N+](=O)[O-])cc1)N1C(=O)CSC1=Nc1cc(-n2c(=O)cc(C(F)(F)F)n(C)c2=O)c(F)cc1Cl [Compound 78] ) has Herbicidal rating CYPSE equal to 6.0

---

system: TRZAWR (Wheat, Winter, cv Riband); test: Postemergence herbicidal evaluation; assay type: in vivo, Triticum aestivum; settings: Rate 0.0315 kg/ha
measurement-label: Postemergence herbicidal rating TRZAWR
Quick one: just the number, no unit, thanks!

The cases that follow already have their Postemergence herbicidal rating TRZAWR on record.
molecule: CCOC(=O)COc1ccccc1CC1S/C(=N/c2cc(-n3c(=O)cc(C(F)(F)F)n(C)c3=O)c(F)cc2Cl)N(CC(=O)OCC)C1=O (stereo not drawn) [Compound 42]
measurement-label: Postemergence herbicidal rating TRZAWR
quantitative-result: 3.5
--
molecule: CCOC(=O)CN1C(=O)C(CC(=O)OC(C)C)SC1=Nc1cc(-n2c(=O)cc(C(F)(F)F)n(C)c2=O)c(F)cc1Cl (stereo not drawn) [Compound 60]
measurement-label: Postemergence herbicidal rating TRZAWR
quantitative-result: 4.5

Per the records, this molecule ( Cn1c(C(F)(F)F)cc(=O)n(-c2cc(N=C3SCC(=O)N3[C@@H](Cc3ccccc3)C(=O)O)c(Cl)cc2F)c1=O [Compound 53] ) has Postemergence herbicidal rating TRZAWR equal to 3.0

---

Herbicidal rating ECHORC by entry:
tested on: ECHORC (Watergrass (Calif.)); assay: Postemergence weed control under flooded paddy conditions; assay type: in vivo, Echinochloa oryzoides; conditions: Rate 0.0313 kg/ha, postemergence weeds, rated 3 to 4 weeks after treatment
Quick one: just the number, no unit, thanks!

The cases that follow already have their Herbicidal rating ECHORC on record.
compound: C=CCN1C(=O)C(CC(=O)O)SC1=Nc1cc(-n2c(=O)cc(C(F)(F)F)n(C)c2=O)c(F)cc1Cl (centres unmarked)
measurement-label: Herbicidal rating ECHORC
quantitative-result: 0.0

compound: C=CCN1C(=O)C(CC(N)=O)SC1=Nc1cc(-n2c(=O)cc(C(F)(F)F)n(C)c2=O)c(F)cc1Cl (centres unmarked)
measurement-label: Herbicidal rating ECHORC
quantitative-result: 0.0

compound: CCOC(=O)CN1C(=O)C(CC(=O)OC(C)C(=O)OCC)S/C1=N/c1cc(-n2c(=O)cc(C(F)(F)F)n(C)c2=O)c(F)cc1Cl (centres unmarked)
measurement-label: Herbicidal rating ECHORC
quantitative-result: 0.0

compound: CN1C(=O)C(CC(=O)NS(C)(=O)=O)SC1=Nc1cc(-n2c(=O)cc(C(F)(F)F)n(C)c2=O)c(F)cc1Cl (centres unmarked)
measurement-label: Herbicidal rating ECHORC
quantitative-result: 0.0

compound: COC(=O)[C@H](Cc1ccccc1)N1C(=O)CS/C1=N/c1cc(-n2c(=O)cc(C(F)(F)F)n(C)c2=O)c(F)cc1Cl
measurement-label: Herbicidal rating ECHORC
quantitative-result: 9.0

Per the records, this compound ( CCOC(=O)CN1C(=O)C(CC(=O)OCCF)SC1=Nc1cc(-n2c(=O)cc(C(F)(F)F)n(C)c2=O)c(F)cc1Cl (centres unmarked) ) has Herbicidal rating ECHORC equal to 4.0

Per the records, this compound ( CCOC(=O)C(c1ccc(Cl)cc1)N1C(=O)CSC1=Nc1cc(-n2c(=O)cc(C(F)(F)F)n(C)c2=O)c(F)cc1Cl (racemic) ) has Herbicidal rating ECHORC equal to 5.0

Per the records, this compound ( COC(=O)CC1SC(=Nc2cc(-n3c(=O)cc(C(F)(F)F)n(C)c3=O)c(F)cc2Cl)N(C)C1=O (centres unmarked) ) has Herbicidal rating ECHORC equal to 6.0

---

system: IPOHE (Morningglory, Ivyleaf); assay: Preemergence herbicidal evaluation; assay type: in vivo, Ipomoea hederacea; conditions: rate 0.1250 kg/ha; rated 4-5 weeks after treatment
Note to self: use true (1) only for Preemergence herbicidal rating IPOHE readings below 3; a reading exactly at 3 still gets false (0).

Completed entries (count: 4):
compound: Cn1c(C(F)(F)F)cc(=O)n(-c2cc(N=C3SCC(=O)N3[C@@H](Cc3ccccc3)C(=O)O)c(Cl)cc2F)c1=O
class-assignment: false (0)

compound: CCOC(=O)CN1C(=O)C(Cl)SC1=Nc1cc(-n2c(=O)cc(C(F)(F)F)n(C)c2=O)c(F)cc1Cl (stereo not shown)
class-assignment: true (1)

compound: Cn1c(C(F)(F)F)cc(=O)n(-c2cc(/N=C3/SCC(=O)N3CC(=O)O)c(Cl)cc2F)c1=O
class-assignment: true (1)

compound: CCOC(=O)CN1C(=O)C(Cc2ccccc2OC(C)C(=O)OC)SC1=Nc1cc(-n2c(=O)cc(C(F)(F)F)n(C)c2=O)c(F)cc1Cl (stereo not shown)
class-assignment: true (1)

Could you now consider this next compound?
Below 3 on Preemergence herbicidal rating IPOHE? Entry `Cn1c(C(F)(F)F)cc(=O)n(-c2cc(N=C3SCC(=O)N3CC(=O)OCC3CC3)c(Cl)cc2F)c1=O` true (1)

---

test system: ECHCG (Barnyardgrass); experiment: Preemergence herbicidal evaluation; assay type: in vivo, Echinochloa crus-galli; conditions: rate 0.1250 kg/ha; rated 4-5 weeks after treatment
Preemergence herbicidal rating ECHCG by entry:
Quick one: just the number, no unit, thanks!

compound: C=CCN1C(=O)C(CC(=O)NS(=O)(=O)C(C)C)SC1=Nc1cc(-n2c(=O)cc(C(F)(F)F)n(C)c2=O)c(F)cc1Cl (centres unmarked)
Preemergence herbicidal rating ECHCG: 0.0

compound: Cn1c(C(F)(F)F)cc(=O)n(-c2cc(N=C3SCC(=O)N3CC(=O)OCC3CC3)c(Cl)cc2F)c1=O
Preemergence herbicidal rating ECHCG: 0.0

compound: CCOC(=O)CN1C(=O)C(Cc2ccccc2OC(C)C(=O)O)S/C1=N/c1cc(-n2c(=O)cc(C(F)(F)F)n(C)c2=O)c(F)cc1Cl (centres unmarked)
Preemergence herbicidal rating ECHCG: 2.0

compound: COC(=O)CCN1C(=O)CSC1=Nc1cc(-n2c(=O)cc(C(F)(F)F)n(C)c2=O)c(F)cc1Cl
Preemergence herbicidal rating ECHCG: 9.0

compound: CCOC(=O)CN1C(=O)CSC1=Nc1cc(N2C(=O)C3=C(CCCC3)C2=O)c(F)cc1Cl
Preemergence herbicidal rating ECHCG: 0.0

compound: Cn1c(C(F)(F)F)cc(=O)n(-c2cc(N=C3SCC(=O)N3Cc3ccco3)c(Cl)cc2F)c1=O
Preemergence herbicidal rating ECHCG: 0.0

Per the records, this compound ( C=CCN1C(=O)C(CC(=O)Nc2ccccc2)SC1=Nc1cc(-n2c(=O)cc(C(F)(F)F)n(C)c2=O)c(F)cc1Cl (centres unmarked) ) has Preemergence herbicidal rating ECHCG equal to 0.0

Per the records, this compound ( `COC(=O)[C@H](Cc1ccc([N+](=O)[O-])cc1)N1C(=O)CSC1=Nc1cc(-n2c(=O)cc(C(F)(F)F)n(C)c2=O)c(F)cc1Cl` ) has Preemergence herbicidal rating ECHCG equal to 0.0
